- experimental system: T1, rat neurotensin receptor type 1 (rat, UniProt P20789 1-424)
- T1 construct: whole, on cells; Used as membrane homogenates of transfected HEK 293 cells (0.75 ug/well), not intact cells; also called rNTR-1; rNTR1
- T1 sequence (P20789 whole entry): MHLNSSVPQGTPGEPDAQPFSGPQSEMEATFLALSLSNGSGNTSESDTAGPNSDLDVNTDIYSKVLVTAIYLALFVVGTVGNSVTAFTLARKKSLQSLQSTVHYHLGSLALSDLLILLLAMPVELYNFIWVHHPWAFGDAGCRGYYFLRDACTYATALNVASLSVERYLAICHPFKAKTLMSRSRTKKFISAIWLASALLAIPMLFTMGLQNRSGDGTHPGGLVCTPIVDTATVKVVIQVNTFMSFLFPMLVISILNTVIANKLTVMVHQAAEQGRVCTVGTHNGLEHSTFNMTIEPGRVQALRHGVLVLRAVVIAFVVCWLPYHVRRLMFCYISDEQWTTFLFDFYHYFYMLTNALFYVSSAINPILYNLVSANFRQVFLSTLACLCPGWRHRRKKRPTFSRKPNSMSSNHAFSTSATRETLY
- assay text: competition with [3H]-neurotensin on membranes of HEK 293 cells expressing rat NTR-1; Ki from mean IC50 by Cheng-Prusoff
pKi: −log10 of the molar value. Square brackets hold non-standard residues; d marks the D form. Ends that are not written are not given here. Tle = CC(C)(C)[C@H](N)C(=O)O
test readout: pKi

The following binders have reported results that may help.
Report pKi for RKPY[Tle]L (X stands for Tle) [[Lys9, Tle12]NT(8-13)] please.
8.38

Try this binder next: KRPY[Tle]L (X stands for Tle) [[Lys8, Tle12]NT(8-13)]
9.17

(P) RRPW[Tle]L (X stands for Tle) [[Trp11, Tle12]NT(8-13)]
(Q) KRPW[Tle]L (X stands for Tle) [[Lys8, Trp11, Tle12]NT(8-13)]
Please indicate which has the smaller reported pKi: P , or Q . Please identify the chosen entry by its label.
Q
